Assay: Aqueous solubility at pH 6.5
Assay type: physicochemical
outcome.measure: solubility (µg/mL)

smiles.str	units.of.measure	measured.value
CC(C)C[C@@H](COP(=O)(O)O)NC(=O)c1cnc(-c2ccc(Cl)cc2)c(-c2ccc(Cl)cc2)n1	µg/mL	430

---

Recorded pKi values (Cannabinoid receptor 1 (Homo sapiens)) are given below.
pKi: −log10 of the molar value.

compound	pKi
Cc1ccc(-c2ncc(C(=O)NCCOc3ccccc3)nc2-c2ccc(C)cc2)cc1	6.20
Cc1ccc(-c2ncc(C(=O)N[C@H](CO)CC(C)C)nc2-c2ccc(C)cc2)cc1	7.35
Cc1ccc(-c2ncc(C(=O)NCC3CC3)nc2-c2ccc(C)cc2)cc1	6.75
Cc1ccc(-c2ncc(C(=O)N[C@@H]3CCCC[C@@H]3CO)nc2-c2ccc(C)cc2)cc1	6.78
Cc1ccc(-c2ncc(C(=O)N[C@@H](CO)CC(C)C)nc2-c2ccc(C)cc2)cc1	6.34
CCCC(CO)NC(=O)c1cnc(-c2ccc(C)cc2)c(-c2ccc(C)cc2)n1 (stereo not given)	6.80
Cc1ccc(-c2ncc(C(=O)N[C@@H](CO)C(C)C)nc2-c2ccc(C)cc2)cc1	6.50
CCNC(=O)c1cnc(-c2ccc(C)cc2)c(-c2ccc(C)cc2)n1	5.62
Cc1ccc(-c2ncc(C(=O)N[C@H](CO)C(C)C)nc2-c2ccc(C)cc2)cc1	6.63
Cc1ccc(-c2ncc(C(=O)N[C@@H](C(N)=O)c3ccccc3)nc2-c2ccc(C)cc2)cc1	6.62
Cc1ccc(-c2ncc(C(=O)NCC3CCCCC3)nc2-c2ccc(C)cc2)cc1	7.23
Cc1ccc(-c2ncc(C(=O)NCCO)nc2-c2ccc(C)cc2)cc1	5.07
Cc1ccc(-c2ncc(C(=O)NCCCc3ccccc3)nc2-c2ccc(C)cc2)cc1	7.74
Cc1ccc(-c2ncc(C(=O)N[C@@H]3CCCC[C@H]3CO)nc2-c2ccc(C)cc2)cc1	7.30
Cc1ccc(-c2ncc(C(=O)NC(C)COc3c(C)cccc3C)nc2-c2ccc(C)cc2)cc1 (stereo not given)	7.41
Cc1ccc(-c2ncc(C(=O)NCCCN(C)c3ccccc3)nc2-c2ccc(C)cc2)cc1	7.60
Cc1ccc(-c2ncc(C(=O)N[C@@H]3CCCC[C@@H]3O)nc2-c2ccc(C)cc2)cc1	6.52
Cc1ccc(-c2ncc(C(=O)NC3Cc4ccccc4C3O)nc2-c2ccc(C)cc2)cc1 (stereo not given)	7.48
Cc1ccc(-c2ncc(C(=O)NN3CCCCC3)nc2-c2ccc(C)cc2)cc1	7.28
CC(C)C[C@@H](CO)NC(=O)c1cnc(-c2ccc(Cl)cc2)c(-c2ccc(Cl)cc2)n1	7.85

---

Assay: AUC(0 to 4 hrs) in Sprague-Dawley rat at 10 mg/kg, po
Assay type: ADME, organism-based
Design: time < 4 hr, dose 10 mg/kg, route oral
Conditions: plasma
Form field: AUC(0-t) at 4 h (one value per entry).

smiles.str	AUC(0-t) at 4 h, µM·h
Cc1ccc(-c2ncc(C(=O)N[C@H](CO)CC(C)C)nc2-c2ccc(C)cc2)cc1	0.541
CC(C)C[C@@H](CO)NC(=O)c1cnc(-c2ccc(Cl)cc2)c(-c2ccc(Cl)cc2)n1	0.736

---

Target: Cannabinoid receptor 1 (Homo sapiens, UniProt P21554)
Sequence (P21554 whole entry): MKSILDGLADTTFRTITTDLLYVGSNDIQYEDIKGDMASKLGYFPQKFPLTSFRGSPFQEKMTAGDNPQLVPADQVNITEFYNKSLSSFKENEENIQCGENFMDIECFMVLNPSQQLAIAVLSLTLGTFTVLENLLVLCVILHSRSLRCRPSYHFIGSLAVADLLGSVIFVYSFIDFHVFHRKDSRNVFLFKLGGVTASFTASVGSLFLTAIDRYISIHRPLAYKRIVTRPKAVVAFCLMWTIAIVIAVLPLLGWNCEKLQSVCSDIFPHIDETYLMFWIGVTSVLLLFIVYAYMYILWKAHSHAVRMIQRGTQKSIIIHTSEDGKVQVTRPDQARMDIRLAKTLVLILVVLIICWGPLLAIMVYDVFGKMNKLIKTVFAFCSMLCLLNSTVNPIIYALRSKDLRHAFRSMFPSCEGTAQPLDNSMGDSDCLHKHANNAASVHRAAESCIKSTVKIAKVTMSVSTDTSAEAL
Experiment: Binding affinity to human CB1 receptor at 13 uM
Form field: inhibition (one value per entry).

compound	inhibition [%]
Cc1ccc(-c2ncc(C(=O)N3CCNC(=O)C3)nc2-c2ccc(C)cc2)cc1	29
Cc1ccc(-c2ncc(C(=O)NC3CCNC3=O)nc2-c2ccc(C)cc2)cc1 (centres undefined)	46
Cc1ccc(-c2ncc(C(=O)N3CCC(O)CC3)nc2-c2ccc(C)cc2)cc1	38
Cc1ccc(-c2ncc(C(=O)N[C@H]3CC[C@H](O)CC3)nc2-c2ccc(C)cc2)cc1	54

---

Biological target: Cannabinoid receptor 1 (Rattus norvegicus)
Sequence (P20272 whole entry): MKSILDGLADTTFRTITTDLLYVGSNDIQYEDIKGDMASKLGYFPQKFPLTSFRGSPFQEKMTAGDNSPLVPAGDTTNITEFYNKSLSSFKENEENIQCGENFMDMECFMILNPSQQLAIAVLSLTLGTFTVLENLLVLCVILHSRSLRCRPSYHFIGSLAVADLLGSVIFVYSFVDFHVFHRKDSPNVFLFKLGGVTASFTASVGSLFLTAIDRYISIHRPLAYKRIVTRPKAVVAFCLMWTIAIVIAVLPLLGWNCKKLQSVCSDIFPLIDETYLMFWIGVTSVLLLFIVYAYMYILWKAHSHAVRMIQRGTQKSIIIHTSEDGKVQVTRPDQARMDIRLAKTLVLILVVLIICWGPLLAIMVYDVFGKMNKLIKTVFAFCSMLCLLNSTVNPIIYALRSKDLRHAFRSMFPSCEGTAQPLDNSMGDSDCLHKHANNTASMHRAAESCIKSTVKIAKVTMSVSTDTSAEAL
outcome.measure: Ki

smiles.str	measured.value
Cc1ccc(-c2ncc(C(=O)N[C@H](CO)CC(C)C)nc2-c2ccc(C)cc2)cc1	35 nM

---

Assay: AUC(0 to 4 hrs) in Sprague-Dawley rat at 30 mg/kg, po
Assay type: ADME, organism-based
Set-up: time < 4 hr, dose 30 mg/kg, route oral
Details: plasma
outcome.measure: AUC(0-t) at 4 h (µM·h)

smiles.str	outcome.measure	measured.value
Cc1ccc(-c2ncc(C(=O)NCCCc3ccccc3)nc2-c2ccc(C)cc2)cc1	AUC(0-t) at 4 h	0.256
